// provenance: paper PMC4861903

Test: Aqueous solubility by HPLC in H2O, 5% glucose and 0.9% NaCl
Type: physicochemical
Conditions: 24 °C, saline or isotonic
measurement-label: solubility (µg/mL)
Please state the figure in µg/mL; there is no need to write the unit.

Entry under test: COc1ccc(-c2cc(=O)c3c(O)cc(O)cc3o2)cc1 . Its solubility was 0.312

---

Experiment: Acute toxicity assessment in ICR mice, single i.v. dose
Format: in vivo
Settings: both sexes, ICR, mouse, in vivo, iv, Bliss method, read-out: LD50 with 95% confidence level
measurement-label: LD50 at 24 h

Measured LD50 at 24 h, COc1ccc(-c2cc(=O)c3c(O)cc(OP(=O)([O-])[O-])cc3o2)cc1.[Na+].[Na+] [acacetin prodrug, phosphate sodium salt of acacetin] : 685 to 760 mg/kg

---

// solubility lookup, one value per entry
Assay: Aqueous solubility by HPLC in H2O, 5% glucose and 0.9% NaCl
Assay type: physicochemical
Conditions: 24 °C, saline or isotonic, in 5% glucose, room temperature (23–25 °C), n = 3; read-out: maximum solubility
Report the value in mg/mL with no unit label.

>  <molecule>
COc1ccc(-c2cc(=O)c3c(O)cc(OP(=O)(O)O)cc3o2)cc1 [phosphate ester of acacetin]

>  <solubility (mg/mL)>
0.0027

$$$$

# next molecule below
The reported solubility of the molecule COc1ccc(-c2cc(=O)c3c(O)cc(OP(=O)([O-])[O-])cc3o2)cc1.[Na+].[Na+] [acacetin prodrug, phosphate sodium salt of acacetin] was 91.4

---

Assay: Aqueous solubility by HPLC in H2O, 5% glucose and 0.9% NaCl
Format: physicochemical
Settings: 24 °C, water, in H2O, room temperature (23–25 °C), n = 3; read-out: maximum solubility
Property: solubility; scope: individual compounds
The reply should be a number in mg/mL, with the unit left off.

>  <compound>
COc1ccc(-c2cc(=O)c3c(O)cc(OP(=O)([O-])[O-])cc3o2)cc1.[Na+].[Na+] [acacetin prodrug, phosphate sodium salt of acacetin]

>  <measurement-label>
solubility

>  <reported-value>
126

$$$$

// field: solubility; key: COc1ccc(-c2cc(=O)c3c(O)cc(OP(=O)(O)O)cc3o2)cc1 [phosphate ester of acacetin] ; value = 0.0025
